# Target under test: human FXR (NR1H4) (Homo sapiens (Human))
# Sequence (Q96RI1 whole entry, the tested form may be a part): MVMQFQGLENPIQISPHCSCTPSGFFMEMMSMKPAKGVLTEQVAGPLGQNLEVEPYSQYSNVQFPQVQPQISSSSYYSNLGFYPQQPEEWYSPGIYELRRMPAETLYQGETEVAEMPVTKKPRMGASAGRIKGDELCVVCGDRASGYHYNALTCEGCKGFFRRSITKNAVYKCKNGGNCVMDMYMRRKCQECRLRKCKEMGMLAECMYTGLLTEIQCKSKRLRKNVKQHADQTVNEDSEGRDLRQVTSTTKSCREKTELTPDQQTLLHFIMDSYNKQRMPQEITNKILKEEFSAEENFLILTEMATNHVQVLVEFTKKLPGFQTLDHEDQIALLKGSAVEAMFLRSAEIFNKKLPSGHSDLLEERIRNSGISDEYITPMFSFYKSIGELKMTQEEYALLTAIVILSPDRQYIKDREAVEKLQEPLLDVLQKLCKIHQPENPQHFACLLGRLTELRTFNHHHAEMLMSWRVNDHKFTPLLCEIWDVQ
# Measurement notes: Human FXR (NR1H4) Assay (Gal4 promoter driven luciferase reporter, CHO cells)
# Stated conditions: CHO reporter cells expressing human NR1H4; 22 hours incubation; potency ranges
Measured parameter: EC50

Molecule | Target under test | EC50
CN(Cc1ccc(C(=O)NS(=O)(=O)C2CC2)cc1)c1ccc(OCc2c(-c3c(Cl)cccc3Cl)noc2C2CC2)nc1C(F)(F)F [Example 1] | human FXR (NR1H4) (Homo sapiens (Human)) | 100 to 1000 nM

Turning now to a further molecule:
Using the record for CN(Cc1ccc(C(=O)NS(=O)(=O)c2ccc(C(C)(C)C)cc2)cc1)c1ccc(OCc2c(-c3c(Cl)cccc3Cl)noc2C2CC2)nc1C(F)(F)F [Example 2] , state its measured EC50.
1000 to 10000 nM
